Data provenance: the RNAGym collection of RNA variant scans (doi:10.7554/elife.80360)

B1: Twister Ribozyme (parent)
chain: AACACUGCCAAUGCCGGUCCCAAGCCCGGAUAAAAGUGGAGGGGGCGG

- Variants of: B1
- assay method text: self-cleavage, relative activity (ratio to wild type); higher = more cleavage; co-transcriptional
Entries are grouped by self-cleavage into these classes: 1: < 0.2; 2: ≥ 0.2 and < 0.4; 3: ≥ 0.4

Worked set:
- variant designation: "C3A C8G"
  class name: 1
- variant designation: "C8A C46G"
  class name: 2
- variant designation: "C5U G24C"
  class name: 1
- variant designation: "G16C C26A"
  class name: 2
- variant designation: "C9G G13A"
  class name: 3

Moving on to another variant below.
Data request: Bin this entry: U6G G36C
Data returned: 1
